# System: synaptosomial uptake of serotonin
# Assay overview: inhibition of synaptosomial uptake of serotonin (14C-5-HT)
# Type: biochemical
# Experimental setup: at 10 μM, synaptosomes
Readout name: Neuronal Uptake 5HT % Inhibition at 10 μM (%)
// units = %; emit number, no label

Use these answered entries as a reference point.
CN1CCN(CC(c2cccc(Cl)c2)C2(O)CCCCC2)CC1 (stereo not shown) : 33
CN1CCN(CC(c2cccc(C(F)(F)F)c2)C2(O)CCCCC2)CC1 (stereo not shown) : 0
COc1cccc(C(CN2CCN(c3cccc(Cl)c3)CC2)C2(O)CCCCC2)c1 (stereo not shown) : 62

Q: Look up Neuronal Uptake 5HT % Inhibition at 10 μM with synaptosomial uptake of serotonin for this compound: COc1ccc(C(CCN2CCN(Cc3ccccc3)CC2)C2(O)CCCCC2)cc1 (stereo not shown)
Ans: 67

* * *

# Tested target: 5-HT1A receptor (Rattus norvegicus)
# Sequence (P19327 1-422): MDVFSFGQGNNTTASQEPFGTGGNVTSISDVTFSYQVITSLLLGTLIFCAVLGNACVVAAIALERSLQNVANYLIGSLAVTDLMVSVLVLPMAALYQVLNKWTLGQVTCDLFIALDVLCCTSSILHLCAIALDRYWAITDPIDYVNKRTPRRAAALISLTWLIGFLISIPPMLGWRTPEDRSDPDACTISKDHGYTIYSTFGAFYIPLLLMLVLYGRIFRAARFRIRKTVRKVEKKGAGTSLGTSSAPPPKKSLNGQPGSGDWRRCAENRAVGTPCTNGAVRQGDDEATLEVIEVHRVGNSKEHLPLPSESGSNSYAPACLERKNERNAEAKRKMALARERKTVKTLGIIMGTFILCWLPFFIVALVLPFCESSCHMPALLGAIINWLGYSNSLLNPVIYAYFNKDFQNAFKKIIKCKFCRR
Listed here are compounds together with their documented Ki.
// units = µM; emit number, no label

COc1cccc(C(CCN2CCN(Cc3ccccc3)CC2)C2(O)CCCCC2)c1 (centres unmarked) [Example 1] : 0.01

Q: I have this compound here, COc1cccc(C(CCN2CCN(c3cncc(Cl)n3)CC2)C2(O)CCCCC2)c1 (centres unmarked) [Example 3] , and I need its recorded Ki.
Ans: 0.122

* * *

# Tested target: 5-HT1A receptor (Rattus norvegicus)
# Construct: from tissue; host or cells: rat hippocampus
# Assay overview: inhibition of [3H] 8-hydroxy-2-(di-n-propylamino)tetralin binding at 5-HT1A receptor sites
# Experimental setup: at 1 μM, rat hippocampal tissue
Listed here are compounds together with their documented inhibition at 1 µM.
// units = %; emit number, no label

Use these answered entries as a reference point.
COc1cccc(C(CN2CCN(c3cccc(Cl)c3)CC2)C2(O)CCCCC2)c1 (stereo not drawn) : 97
COc1ccc(C(CCN2CCN(c3cncc(Cl)n3)CC2)C2(O)CCCCC2)cc1 (stereo not drawn) : 57

Q: I have this compound here, COc1cccc(C(CCN2CCN(Cc3ccc(Cl)cc3)CC2)C2(O)CCCCC2)c1 (stereo not drawn) , and I need its recorded inhibition at 1 µM.
Ans: 97

* * *

# Tested target: 5-HT1A receptor (Rattus norvegicus, UniProt P19327)
# Construct: from tissue; host or cells: rat hippocampus
# Assay overview: inhibition of [3H] 8-hydroxy-2-(di-n-propylamino)tetralin binding at 5-HT1A receptor sites
# Experimental setup: at 1 μM, rat hippocampal tissue
Readout name: inhibition at 1 µM (%)
// units = %; emit number, no label

COc1cccc(C(CCN2CCN(c3ncccn3)CC2)C2(O)CCCCC2)c1 (centres unmarked) : 78

Q: I have this compound here, COc1ccc(C(CCN2CCN(Cc3ccccc3OC)CC2)C2(O)CCCCC2)cc1 (centres unmarked) , and I need its recorded inhibition at 1 µM.
Ans: 93

Q: I have this compound here, COc1ccc(C(CCN2CCN(Cc3ccc(C(F)(F)F)cc3)CC2)C2(O)CCCCC2)cc1 (centres unmarked) , and I need its recorded inhibition at 1 µM.
Ans: 63

Q: I have this compound here, COc1cccc(C(CN2CCN(Cc3ccccc3)CC2)C2(O)CCCCC2)c1 (centres unmarked) , and I need its recorded inhibition at 1 µM.
Ans: 91

Q: I have this compound here, COc1ccc(C(CCN2CCN(Cc3ccccc3)CC2)C2(O)CCCCC2)cc1 (centres unmarked) , and I need its recorded inhibition at 1 µM.
Ans: 99
